Target: T1, human VPAC2 receptor (human, UniProt P41587 24-438)
T1 construct: whole, on cells; CHO-S cell line stably expressing human VPAC2 (cAMP assays)
T1 sequence (looked up): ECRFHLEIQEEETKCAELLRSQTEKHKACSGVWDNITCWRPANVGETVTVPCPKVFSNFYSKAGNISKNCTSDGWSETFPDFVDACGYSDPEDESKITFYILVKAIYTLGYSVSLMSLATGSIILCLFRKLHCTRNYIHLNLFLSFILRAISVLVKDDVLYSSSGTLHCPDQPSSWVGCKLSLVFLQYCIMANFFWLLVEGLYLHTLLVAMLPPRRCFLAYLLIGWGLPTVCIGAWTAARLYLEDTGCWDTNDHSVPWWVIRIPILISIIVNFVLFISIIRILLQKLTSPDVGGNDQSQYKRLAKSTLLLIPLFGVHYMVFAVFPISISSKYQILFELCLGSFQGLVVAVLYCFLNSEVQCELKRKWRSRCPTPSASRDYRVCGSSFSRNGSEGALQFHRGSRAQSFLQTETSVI
Assay: filter binding, VPAC2 cell membranes, displacement of 125I-VIP
ATTRIBUTE_MEASURED: IC50 (nM)
Give bare numbers, in nM.

Take a look at these entries with their results.
{"BINDER": "HSDAVFTEQYTXLRXQLAXXXYLQXIXCXGGPSSGAPPPC (C6-HSDAVFTEQY(OMe)TOrnLRAibQLAAbuAibOrnYLQAibIOrnC(PEG20K)OrnGGPSSGAPPPC(PEG20K)-NH2) [P553]", "READOUT_UNITS": "nM", "IC50": 21.7}
{"BINDER": "HSDAVFTEQYTXLRXQLAXXXYLQSIXXCGGPSSGAPPPS (C6-HSDAVFTEQY(OMe)TOrnLRAibQLAAbuAibOrnYLQSIOrnOrnC(PEG40K)GGPSSGAPPPS-NH2) [P566]", "READOUT_UNITS": "nM", "IC50": 8.2}

Read the next record carefully.
Asked: Write down IC50 measured for item HSDAVFTEQYTXLRXQVAAXXYLQSIXXCGGPSSGAPPPC (C6-HSDAVFTEQY(OMe)TOrnLRAibQVAAAibOrnYLQSIOrnOrnC(PEG20K)GGPSSGAPPPC(PEG20K)-NH2) [P562]
Given back: 42.8
